This collection of values is drawn from patent US4435391A.

Test system: triglyuride (TG) level of plasma
Assay: Plasma triglyceride (TG) in Triton-injected mice (Experiment 2)
Format: in vivo, mice of ddY strain
Conditions: Mus musculus, iv; Table 2; 150 mg/kg immediately and 8 hours after Triton WR-1399 500 mg/kg i.v.; blood drawn 24 h after Triton; read-out: Percent Reduction TG (x ± S.E.)

compound	inhibition in vivo / %
CCCC1=Nc2cc(C(=O)OCC)ccc2Oc2cc(C)ccc21 [Compound 20]	17.4
CCOC(=O)c1ccc2c(c1)N=C(c1ccccc1)c1ccc(OC)cc1O2 [Compound 18]	21.3
CCOC(=O)C(C)(C)Oc1ccc(Cl)cc1 [chlofibrate, reference compound]	9.5
CCC1=Nc2cc(C(=O)O)ccc2Oc2cc(OC)ccc21 [Compound 9]	18.5
COC(=O)c1ccc2c(c1)N=Cc1cccc(OC)c1O2 [Compound 10]	24.5
CC1=Nc2cc(C(=O)O)ccc2Oc2cc(C)ccc21 [Compound 8]	19.3
CCCOC(=O)c1ccc2c(c1)N=Cc1cccc(OC)c1O2 [Compound 11]	21.3
CCOc1cccc2c1Oc1ccc(C(=O)O)cc1N=C2 [Compound 14]	21.3
CCOC(=O)c1ccc2c(c1)N=C(C=Cc1ccccc1)c1cc(OC)ccc1O2 [Compound 17]	19.7
CCCCOC(=O)c1ccc2c(c1)N=Cc1cccc(OC)c1O2 [Compound 12]	19.3
CCOC(=O)c1ccc2c(c1)N=Cc1ccc(C)cc1O2 [Compound 3]	18.7
COc1ccc2c(c1)Oc1ccc(C(=O)O)cc1N=C2C [Compound 7]	18.8
CCOC(=O)c1ccc2c(c1)N=C(c1cccc(C)c1)c1ccc(OC)cc1O2 [Compound 19]	19.7
O=C(O)c1ccc2c(c1)N=Cc1cc(Cl)ccc1O2 [Compound 13]	15.2
CCOC(=O)c1ccc2c(c1)N=C(CC)c1ccc(OC)cc1O2 [Compound 6]	19.6
CCOC(=O)c1ccc2c(c1)N=C(CC)c1cc(OC)cc(OC)c1O2 [Compound 16]	17.8
Cc1ccc2c(c1)C=Nc1cc(C(=O)O)ccc1O2 [Compound 15]	19.4
